Data provenance: patent US7265148B2

# testSystem: recombinant human plasminogen activator inhibitor-1 (PAI-1) (Homo sapiens)
# Construct: purchased Molecular Innovations, Royal Oak, Mich
# Sequence (P05121 24-402): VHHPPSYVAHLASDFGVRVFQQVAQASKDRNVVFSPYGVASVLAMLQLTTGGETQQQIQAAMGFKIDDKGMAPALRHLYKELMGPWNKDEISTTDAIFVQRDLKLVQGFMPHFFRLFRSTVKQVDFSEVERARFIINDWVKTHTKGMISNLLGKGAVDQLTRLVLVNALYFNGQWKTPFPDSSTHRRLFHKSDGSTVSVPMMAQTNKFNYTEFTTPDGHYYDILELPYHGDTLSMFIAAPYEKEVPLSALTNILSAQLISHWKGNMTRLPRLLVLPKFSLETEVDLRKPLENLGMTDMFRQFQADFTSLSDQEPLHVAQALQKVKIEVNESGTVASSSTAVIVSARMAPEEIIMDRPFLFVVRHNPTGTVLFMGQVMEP
# testDescription: Primary screen for the PAI-1 inhibition (chromogenic tPA activity)
# Format: biochemical
# appliedConditions: 25 μM test compound; pH 6.6
propertyLabel: inhibition at 25 µM (%)

Cc1ccc(C)n1-c1ccc2c(c1)c(-c1ccccc1)c(C(=O)O)n2Cc1ccccc1 ... 83
O=C(O)c1c(-c2ccccc2)c2cc(-n3cccc3)ccc2n1Cc1ccccc1 ... 69
O=C(N[C@@H](Cc1ccccc1)C(=O)O)c1c(-c2ccccc2)c2cc(-n3cccc3)ccc2n1Cc1ccccc1 ... 52
O=C(O)c1c(-c2ccccc2)c2cc(-n3cccc3)ccc2n1Cc1ccc(-c2ccccc2)cc1 ... 90
O=C(O)c1c(-c2ccccc2)c2cc(-n3ccc4ccccc43)ccc2n1Cc1ccc(-c2ccccc2)cc1 ... 79
O=C(O)c1[nH]c2ccc(-n3cccc3)cc2c1-c1ccccc1 ... 47
CC(C)(C)c1ccc(-c2c(C(=O)O)n(Cc3ccccc3)c3ccc(-n4ccc5ccccc54)cc23)cc1 ... 99
CC(C)(C)c1ccc(-c2c(C(=O)O)n(Cc3ccccc3)c3ccc(-n4cccc4)cc23)cc1 ... 90
Cn1c(C(=O)N[C@@H](Cc2ccccc2)C(=O)O)c(-c2ccccc2)c2cc(-n3cccc3)ccc21 ... 61
Cc1ccc(C)n1-c1ccc2c(c1)c(-c1ccccc1)c(C(=O)N[C@@H](CC(C)C)C(=O)O)n2Cc1ccccc1 ... 79
CC(C)C[C@H](NC(=O)c1c(-c2ccccc2)c2cc(-n3cccc3)ccc2n1Cc1ccccc1)C(=O)O ... 90
O=C(N[C@@H](Cc1ccccc1)C(=O)O)c1[nH]c2ccc(-n3cccc3)cc2c1-c1ccccc1 ... 51

----------
# testSystem: recombinant human plasminogen activator inhibitor-1 (PAI-1) (Homo sapiens)
# Construct: purchased Molecular Innovations, Royal Oak, Mich
# testDescription: Primary screen for the PAI-1 inhibition (chromogenic tPA activity)
# Type: biochemical
# appliedConditions: 10 μM test compound; pH 6.6
Quick rule: inhibition at 10 µM of at least 40% means satisfied, below that means not satisfied.

O=C(O)c1c(-c2ccccc2)c2cc(-n3cccc3)ccc2n1Cc1ccccc1 ... not satisfied
O=C(O)c1[nH]c2ccc(-n3cccc3)cc2c1-c1ccccc1 ... not satisfied
O=C(N[C@@H](Cc1ccccc1)C(=O)O)c1c(-c2ccccc2)c2cc(-n3cccc3)ccc2n1Cc1ccccc1 ... not satisfied
Cc1ccc(C)n1-c1ccc2c(c1)c(-c1ccccc1)c(C(=O)O)n2Cc1ccccc1 ... not satisfied
CC(C)(C)c1ccc(-c2c(C(=O)O)n(Cc3ccccc3)c3ccc(-n4ccc5ccccc54)cc23)cc1 ... satisfied
Cn1c(C(=O)N[C@@H](Cc2ccccc2)C(=O)O)c(-c2ccccc2)c2cc(-n3cccc3)ccc21 ... not satisfied
O=C(O)c1c(-c2ccccc2)c2cc(-n3ccc4ccccc43)ccc2n1Cc1ccc(-c2ccccc2)cc1 ... satisfied
CC(C)(C)c1ccc(-c2c(C(=O)O)n(Cc3ccccc3)c3ccc(-n4cccc4)cc23)cc1 ... satisfied
Cc1ccc(C)n1-c1ccc2c(c1)c(-c1ccccc1)c(C(=O)N[C@@H](CC(C)C)C(=O)O)n2Cc1ccccc1 ... satisfied
O=C(O)c1c(-c2ccccc2)c2cc(-n3cccc3)ccc2n1Cc1ccc(-c2ccccc2)cc1 ... satisfied
CC(C)C[C@H](NC(=O)c1c(-c2ccccc2)c2cc(-n3cccc3)ccc2n1Cc1ccccc1)C(=O)O ... not satisfied
